The entries below are paired with their reported hemolysis at 0.75 h, 400 ug/ml.
Test: Hemolytic activity in human red blood cells at 400 ug/ml incubated for 45 mins by spectrophotometric analysis relative to control
Assay type: toxicity, cell-based, Erythrocyte
Conditions: red blood cells (erythrocytes), at 400 µg/mL, read-out: Activity
Answer with a number only, understood to be in %.

Look over these answered cases.
CC[C@H](C)[C@@H](NC(=O)[C@@H](NC(=O)[C@H](CCC(=O)O)NC(=O)[C@H](Cc1ccccc1)NC(=O)[C@@H](CCN)NC(=O)[C@H](CCN)NC(=O)[C@H](CO)NC(=O)[C@@H](Cc1c[nH]c2ccccc12)NC(=O)[C@@H](CO)NC(=O)CNC(=O)[C@@H](CCN)NC(=O)[C@H](NC(=O)CCCCCN)C(C)C)C(C)C)C(=O)N[C@@H](C)C(=O)O = 3.5
CC[C@H](C)[C@@H](NC(=O)[C@@H](NC(=O)[C@H](CCC(=O)O)NC(=O)[C@H](Cc1ccccc1)NC(=O)[C@@H](CCN)NC(=O)[C@H](CCN)NC(=O)[C@H](CO)NC(=O)[C@@H](Cc1c[nH]c2ccccc12)NC(=O)[C@@H](CO)NC(=O)CNC(=O)[C@@H](CCN)NC(=O)[C@H](NC(=O)[C@@H]1CCCN1)C(C)C)C(C)C)C(=O)N[C@@H](C)C(=O)O = 5.5

Proceed to the following item.
Param item = CC[C@H](C)[C@@H](NC(=O)[C@@H](NC(=O)[C@H](CCC(=O)O)NC(=O)[C@H](Cc1ccccc1)NC(=O)[C@@H](CCN)NC(=O)[C@H](CCN)NC(=O)[C@H](CCN)NC(=O)[C@@H](Cc1c[nH]c2ccccc12)NC(=O)[C@@H](CO)NC(=O)CNC(=O)[C@@H](CCN)NC(=O)[C@H](N)C(C)C)C(C)C)C(=O)N[C@@H](C)C(=O)O ; retrieve measured hemolysis at 0.75 h, 400 ug/ml.
1.1
